Where do these numbers come from? They come from ChEMBL document CHEMBL1914368.

TARGET: UniProt P06239
ASSAY_COMMENT: Inhibition of C-terminal His6-tagged human full-length LCK expressed in Sf9 cells after 60 mins by TR-FRET Assay
EXPERIMENTAL_ENDPOINT: pIC50
Reminder that pIC50 is minus the log10 of a molar concentration.

What value of pIC50 has been recorded for this entry: Cc1ccccc1Nc1nc2cc(F)c(N(C)C(=O)/C=C/CN(C)C)cc2n2cncc12
6.11

====

TARGET: UniProt:P12931
Sequence (P12931 2-536 limits assumed): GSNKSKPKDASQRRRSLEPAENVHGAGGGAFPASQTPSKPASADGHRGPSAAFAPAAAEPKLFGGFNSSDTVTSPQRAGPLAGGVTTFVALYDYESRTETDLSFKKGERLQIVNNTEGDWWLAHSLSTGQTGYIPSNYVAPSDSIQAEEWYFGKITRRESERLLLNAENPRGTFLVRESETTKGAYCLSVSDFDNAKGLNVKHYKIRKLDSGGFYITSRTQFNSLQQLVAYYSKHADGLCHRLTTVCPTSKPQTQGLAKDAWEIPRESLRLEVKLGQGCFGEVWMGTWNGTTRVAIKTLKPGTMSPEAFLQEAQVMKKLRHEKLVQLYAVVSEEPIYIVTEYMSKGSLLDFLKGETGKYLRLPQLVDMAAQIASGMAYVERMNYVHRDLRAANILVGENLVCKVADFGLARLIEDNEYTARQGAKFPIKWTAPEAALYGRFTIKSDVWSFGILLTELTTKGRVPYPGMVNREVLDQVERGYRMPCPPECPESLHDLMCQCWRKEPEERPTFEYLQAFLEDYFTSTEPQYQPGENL
ASSAY_COMMENT: Inhibition cSRC expressed in Sf9 cells preincubated for 60 mins measured after 60 mins by TR-FRET Assay
EXPERIMENTAL_ENDPOINT: IC50 (nM)
Return type: number; implicit unit nM.

What value of IC50 has been recorded for this entry: Cc1ccc(F)cc1Nc1nc2cc(Cl)c(N(C)C(=O)/C=C/CN(C)C)cc2n2cncc12
410

====

I'd be grateful if you could share measured IC50 for these entries.
TARGET: Tyrosine-protein kinase BTK (Homo sapiens, UniProt Q06187)
Sequence (Q06187 whole entry): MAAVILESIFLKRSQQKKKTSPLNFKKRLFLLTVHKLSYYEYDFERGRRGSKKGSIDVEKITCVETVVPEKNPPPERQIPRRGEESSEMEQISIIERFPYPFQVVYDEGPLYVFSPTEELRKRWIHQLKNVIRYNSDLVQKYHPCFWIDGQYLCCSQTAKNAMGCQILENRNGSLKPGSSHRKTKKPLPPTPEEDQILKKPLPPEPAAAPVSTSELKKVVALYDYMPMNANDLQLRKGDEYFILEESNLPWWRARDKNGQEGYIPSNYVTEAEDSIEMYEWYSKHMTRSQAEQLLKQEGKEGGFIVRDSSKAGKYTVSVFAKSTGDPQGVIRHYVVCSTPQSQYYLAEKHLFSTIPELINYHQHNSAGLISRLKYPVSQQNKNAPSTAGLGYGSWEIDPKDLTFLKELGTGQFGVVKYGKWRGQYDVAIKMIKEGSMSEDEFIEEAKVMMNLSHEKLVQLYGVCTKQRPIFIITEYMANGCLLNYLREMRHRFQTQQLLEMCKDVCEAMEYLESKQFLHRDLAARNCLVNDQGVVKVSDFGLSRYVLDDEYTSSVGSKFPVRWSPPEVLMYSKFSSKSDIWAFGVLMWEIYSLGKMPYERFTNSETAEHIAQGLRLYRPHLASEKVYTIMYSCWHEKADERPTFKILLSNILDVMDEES
ASSAY_COMMENT: Inhibition of human full-length BTK expressed in Sf9 cells using FAM-Srctide peptide as substrate after 60 mins by TR-FRET Assay
Write the figure, then the unit, nothing else.

What value of IC50 has been recorded for this entry: COc1cc2nc(Nc3ccccc3C)c3cncn3c2cc1NC(=O)C#CCN1CCCCC1
0.847 nM

What value of IC50 has been recorded for this entry: Cc1ccc(F)cc1Oc1nc2cc(F)c(N(C)C(=O)/C=C/CN(C)C)cc2n2cncc12
13 nM

What value of IC50 has been recorded for this entry: Cc1ccc(F)cc1Nc1nc2cc(F)c(N(C)C(=O)/C=C/CN(C)C)cc2n2cncc12
6.76 nM

What value of IC50 has been recorded for this entry: Cc1ccc(F)cc1Nc1nc2cc(Cl)c(N(C)C(=O)/C=C/CN(C)C)cc2n2cncc12
3.98 nM

What value of IC50 has been recorded for this entry: Cc1ccc(F)cc1Nc1nc2ccc(N(C)C(=O)/C=C/CN(C)C)cc2n2cncc12
3.33 nM

What value of IC50 has been recorded for this entry: Cc1ccccc1Nc1nc2cc(Cl)c(N(C)C(=O)/C=C/CN(C)C)cc2n2cncc12
4.83 nM

====

I'd be grateful if you could share measured pIC50 for these entries.
TARGET: Tyrosine-protein kinase Lck (Homo sapiens, UniProt P06239)
Sequence (P06239 whole entry): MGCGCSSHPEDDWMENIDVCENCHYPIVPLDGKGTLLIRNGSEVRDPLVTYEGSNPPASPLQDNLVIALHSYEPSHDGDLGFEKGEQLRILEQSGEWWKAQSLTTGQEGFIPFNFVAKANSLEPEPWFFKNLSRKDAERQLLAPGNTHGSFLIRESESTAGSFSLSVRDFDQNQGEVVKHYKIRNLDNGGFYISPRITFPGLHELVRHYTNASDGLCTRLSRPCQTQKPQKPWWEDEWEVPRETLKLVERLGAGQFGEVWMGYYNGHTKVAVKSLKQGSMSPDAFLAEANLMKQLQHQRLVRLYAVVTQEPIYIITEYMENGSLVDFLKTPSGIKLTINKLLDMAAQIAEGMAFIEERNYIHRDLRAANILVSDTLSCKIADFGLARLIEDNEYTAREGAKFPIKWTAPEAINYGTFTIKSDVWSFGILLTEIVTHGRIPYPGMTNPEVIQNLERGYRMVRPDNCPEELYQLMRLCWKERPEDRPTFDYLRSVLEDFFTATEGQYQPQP
ASSAY_COMMENT: Inhibition of C-terminal His6-tagged human full-length LCK expressed in Sf9 cells preincubated for 60 mins measured after 60 mins by TR-FRET Assay
Reminder that pIC50 is minus the log10 of a molar concentration.

Return pIC50 measured with Tyrosine-protein kinase Lck (Homo sapiens, UniProt P06239) given this compound: Cc1ccccc1Nc1nc2cc(F)c(N(C)C(=O)/C=C/CN(C)C)cc2n2cncc12
6.12

Return pIC50 measured with Tyrosine-protein kinase Lck (Homo sapiens, UniProt P06239) given this compound: Cc1ccc(F)cc1Nc1nc2cc(Cl)c(N(C)C(=O)/C=C/CN(C)C)cc2n2cncc12
5.55

====

I'd be grateful if you could share measured IC50 for these entries.
TARGET: Tyrosine-protein kinase BTK (Homo sapiens, UniProt Q06187)
ASSAY_COMMENT: Inhibition of human full-length BTK expressed in Sf9 cells using FAM-Srctide peptide as substrate after 60 mins by TR-FRET Assay
Return type: number; implicit unit nM.

What value of IC50 has been recorded for this entry: Cc1c(Cl)cccc1Nc1nc2ccc(N(C)C(=O)/C=C/CN(C)C)cc2n2cncc12
60.6

What value of IC50 has been recorded for this entry: CNc1cc2c(cc1F)nc(Oc1ccccc1C)c1cncn12
670

What value of IC50 has been recorded for this entry: Cc1cc(O)ccc1Nc1nc2ccc(N(C)C(=O)/C=C/CN(C)C)cc2n2cncc12
12.2

What value of IC50 has been recorded for this entry: Cc1ccccc1Nc1nc2ccc(N(C)C(=O)/C=C/CN(C)C)cc2n2cncc12
3.99

What value of IC50 has been recorded for this entry: Cc1ccccc1Oc1nc2cc(F)c(N(C)C(=O)/C=C/CN(C)C)cc2n2cncc12
5.51

What value of IC50 has been recorded for this entry: CN(C)C/C=C/C(=O)N(C)c1cc2c(cc1F)nc(Nc1ccccc1Cl)c1cncn12
1.82

What value of IC50 has been recorded for this entry: CNc1cc2c(cc1F)nc(Nc1ccccc1C)c1cncn12
40

What value of IC50 has been recorded for this entry: CN(C)C/C=C/C(=O)N(C)c1ccc2nc(Cl)c3cncn3c2c1
4290

What value of IC50 has been recorded for this entry: Cc1ccc(NC(=O)c2cccc(C(F)(F)F)c2)cc1Nc1nc2ccc(N(C)C(=O)/C=C/CN(C)C)cc2n2cncc12
16.8

What value of IC50 has been recorded for this entry: Cc1cccc(Cl)c1Nc1nc2ccc(N(C)C(=O)/C=C/CN(C)C)cc2n2cncc12
10.3
